assay: Validation screen for small molecules that induce DNA re-replication in MCF 10A normal breast cells (AID 463097); conditions: MCF 10A cells, DNA re-replication phenotype imaging; series mostly up to 46.1 µM; note: nearly all actives have a fitted effect of over 60% in size
Inconclusive results are not listed. Calls of active or inactive are those of the source. Calls come from the whole dose curve; as a rule, active = well fitted activation curve with a large enough effect; inconclusive = small, poorly fitted or top-dose-only effect; inactive = flat fitted curve, though single readings scatter.
Select the matching outcome among true = active, false = inactive

Example results:
1) N[C@@H](CCl)C(=O)O
false
2) CCN(CC)c1ncnc2c1ncn2[C@@H]1O[C@H](COP(=O)(O)OP(=O)(O)C(Br)(Br)P(=O)(O)O)[C@@H](O)[C@H]1O
false

[Q] Returns: the outcome recorded for CCCN1CC[C@@H]2c3cc(O)ccc3CC[C@@H]21 in this assay.
[A] false

[Q] Identify the outcome logged in this assay for the compound shown: NC(Cc1ccc(N(CCCl)CCCl)cc1)C(=O)O (stereo unspecified)
[A] false

[Q] Which result was noted for this compound in the test: C[N+](C)(C)CC#CCN1CCCC1=O
[A] false

[Q] // param item: Oc1ccc2c3c1O[C@H]1c4oc5ccccc5c4C[C@@]4(O)C(C2)N(CC2CC2)CCC314 (stereo partly specified) ; yields the recorded call
[A] false

[Q] What did the test return for CC(N)Cc1c[nH]c2ccc(O)cc12 (stereo unspecified) ?
[A] false
